A collection of binders and their measured pKd
Molecular target: T1, peripheral plasma membrane protein CASK (CASK) kinase domain (human, UniProt O14936 12-276)
T1 construct: CASK, kinase domain; limits in Dataset EV2; source: E. coli Rosetta, purified
T1 sequence (looked up): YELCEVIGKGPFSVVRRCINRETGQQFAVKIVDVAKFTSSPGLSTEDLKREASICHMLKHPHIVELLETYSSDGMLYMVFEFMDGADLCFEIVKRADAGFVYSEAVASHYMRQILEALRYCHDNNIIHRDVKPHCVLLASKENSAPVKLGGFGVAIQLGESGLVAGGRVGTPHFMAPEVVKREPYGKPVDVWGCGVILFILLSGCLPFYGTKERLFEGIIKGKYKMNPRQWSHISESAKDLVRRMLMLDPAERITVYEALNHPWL
Assay: fluorescence polarisation; displacement: unlabelled peptide titrated onto a complex of FITC-labelled peptide (10 nM) and protein domain (1-2x KD); 50 mM sodium phosphate buffer pH 7.4 (CASK: plus 100 mM NaCl); KD calculated from IC50; technical triplets
Conditions: both partners purified
pKd: −log10 of the molar value.
experimentalReadout: pKd

{"columns": ["binder", "observedMeasurement"],
 "data": [
  ["MSDLWVPNSASGQDPG (FANCA residues 1-16; also called FANCA S4L mutant; source: synthetic peptide, bought: Genecust) [FANCA 1-16 S4L peptide]", 4.82],
  ["YSGDTSPWHLSNVSST (microtubule-associated protein tau residues 717-731; also called MAPT R723W mutant; source: synthetic peptide, bought: Genecust) [MAPT 717-731 R723W peptide]", 4.41]
]}

Values compiled from paper PMC11369174.
